Listing: EC50 of selected binders
target: Claudin18.2-His protein (human); experiment: indirect ELISA on coated Claudin18.2-His
Provide only the numeric value, understood in µg/mL.

[[record]]
binder = "257F1E11 (antibody, V domains shown) VH: QAYLQQSGAELVRSGASVKMSCKASGYTFTSHNIHWVKQTPRQGLEWIGYIYPGNGGTNYNQKFKGKATLTADTSSSTAYMQISSLTSEDSAVYFCTRDYYGNSFAYWGQGTLVTVSA VL: DIVMTQSPSSLTEKAGERVSMSCKSSQSLFNSGNQKNYLTWYQQKPGQPPKLLIYWASTRESGVPDRFTGSGSGTDFTLTISSVQAEDLAIYYCQNDYWYPFTFGAGTKLELK"
readout_unit = "µg/mL"
reported_result = 0.0262


Asked: Recorded EC50 for 411G3E10 (antibody, V domains shown) VH: DVQLVESGGGLVQPGGSRKLSCAASGFTFSGFGMHWIRQTPEKGLEWVAYISSGSRPIYYADTVKGRFTISRDNPKNTLFLQMTSLRSEDTAMYFCARFYYGNSFDHWGQGTLVTVSA VL: DIVMTQSPSFLTVTAGEKVTMNCRSSQSLLNSGNQKNYLTWYQQKPGQPPKLLIYWASTRESGVPDRFTGSGSGTDFTLTISSVQAEDLALYYCQNAYSFPLTFGAGTKLELK , please?
Given back: 0.00543
